inhibition at 30 µM listing for selected compounds.
Molecular target: HIV-1 protease (Human immunodeficiency virus type 1 group M subtype B)
Construct: The protease (or proteinase), consisting of only 99 amino acids, is among the smallest enzymes known
Assay: In vitro HIV protease inhibitory assay (HIV Protease FITC Assay)
Type: biochemical
Settings: read-out: HIV-1 Protease % Inhib
All answers are understood in %, so give the number only.

Solved entries (count: 3):
CCCC1(CCc2ccccc2)CC(O)=C(C(CCc2ccccc2)c2ccccc2)C(=O)O1 (stereo not shown) [Example 171]	94.6
CCC(Cc1ccccc1)c1cc(O)c(C(c2cccc(NC(=O)Cc3ccncc3)c2)C2CC2)c(=O)o1 (stereo not shown) [Example 249]	107
C=CC(C1=C(O)CC2(CCCCC2Cc2ccccc2)OC1=O)c1ccccc1 (stereo not shown) [Example 129]	83.4

Now for the compound whose inhibition at 30 µM we want.
Tell me the measured inhibition at 30 µM of CCC(C1=C(O)CC(Cc2ccccc2)(c2ccccc2)OC1=O)c1ccccc1 (stereo not shown) [Example 169] , please. 54.8

====

Target: HIV-1 protease (Human immunodeficiency virus type 1 group M subtype B, UniProt P04585)
Construct: The protease (or proteinase), consisting of only 99 amino acids, is among the smallest enzymes known
Assay: In vitro HIV protease inhibitory assay (HIV Protease FITC Assay)
Format: biochemical
Details: HIV-1 Dose 0.370 uM; read-out: HIV-1 Protease % Inhib
QUANTITY_MEASURED: inhibition at 0.37 µM (%)
All answers are understood in %, so give the number only.

Solved entries (count: 4):
CCCC1(CCCc2ccccc2)CC(O)=C(C(C=Cc2ccccc2)c2ccccc2)C(=O)O1 (centres unmarked) [Example 238]	20.5
CCC(CC1=CCCOC1)c1cc(O)c(C(c2ccccc2)C2CC2)c(=O)o1 (centres unmarked) [Example 76]	54
CCC(Cc1ccccc1)c1cc(O)c(C(c2cccc(NS(=O)(=O)c3ccc(C#N)cc3)c2)C2CC2)c(=O)o1 (centres unmarked) [Example 184]	87
CCC(Cc1cccc(Br)c1)c1cc(O)c(C(c2ccccc2)C2CC2)c(=O)o1 (centres unmarked) [Example 159]	20.6

Now for the compound whose inhibition at 0.37 µM we want.
For the record CCC(Cc1ccccc1)c1cc(O)c(C(c2cccc(NS(=O)(=O)c3ccccc3)c2)C2CC2)c(=O)o1 (centres unmarked) [Example 178] , what value of inhibition at 0.37 µM is listed for HIV-1 protease (Human immunodeficiency virus type 1 group M subtype B, UniProt P04585)? 61.9

====

Target: HIV-1 protease (Human immunodeficiency virus type 1 group M subtype B)
Construct: The protease (or proteinase), consisting of only 99 amino acids, is among the smallest enzymes known
Assay: In vitro HIV protease inhibitory assay (HIV Protease FITC Assay)
Assay type: biochemical
Conditions: HIV-1 Dose 0.123 uM; read-out: HIV-1 Protease % Inhib
QUANTITY_MEASURED: inhibition at 0.123 µM

Solved entries (count: 6):
O=c1oc(CCCF)cc(O)c1C(c1ccccc1)C1CC1 (stereo not drawn)	< 10%
CC(C)Cc1cc(O)c(C(c2ccccc2)C2CC2)c(=O)o1 (stereo not drawn)	11.5%
CCC(Cc1cccc(Cl)c1)c1cc(O)c(C(c2ccccc2)C2CC2)c(=O)o1 (stereo not drawn)	< 10%
Cc1ccc(C(O)Cc2cc(O)c(C(c3ccccc3)C3CC3)c(=O)o2)cc1 (stereo not drawn)	< 10%
CCC(CC1=CCCOC1)c1cc(O)c(C(c2ccccc2)C2CC2)c(=O)o1 (stereo not drawn)	25%
CCS(=O)(=O)Nc1cccc(C(c2c(O)cc(C(CC3CC3)CC3CCCOC3)oc2=O)C2CC2)c1 (stereo not drawn)	20.7%

Tell me the measured inhibition at 0.123 µM of CCC(Cc1ccccc1)c1cc(O)c(C(c2cccc(NC(=O)Nc3ccccc3)c2)C2CC2)c(=O)o1 (stereo not drawn) , please. < 10%

Tell me the measured inhibition at 0.123 µM of CCC(Cc1cccc(OC)c1)c1cc(O)c(C(c2ccccc2)C2CC2)c(=O)o1 (stereo not drawn) , please. < 10%

Tell me the measured inhibition at 0.123 µM of CCC(CCN1CCOCC1)c1cc(O)c(C(c2ccccc2)C2CC2)c(=O)o1 (stereo not drawn) , please. < 10%

Tell me the measured inhibition at 0.123 µM of CCC(CCCN1CCOCC1)c1cc(O)c(C(c2ccccc2)C2CC2)c(=O)o1 (stereo not drawn) , please. < 10%

Tell me the measured inhibition at 0.123 µM of CCC(c1ccccc1)c1cc(O)c(C(CC)c2ccccc2)c(=O)o1 (stereo not drawn) , please. < 10%

Tell me the measured inhibition at 0.123 µM of CCC(Cc1ccccc1)c1cc(O)c(C(c2cccc(NC(=O)[C@H](Cc3cn(S(=O)(=O)c4ccc(C)cc4)cn3)NC(=O)OC(C)(C)C)c2)C2CC2)c(=O)o1 (stereo partly drawn) , please. 19%

====

Molecular target: HIV-1 protease (Human immunodeficiency virus type 1 group M subtype B)
Construct: The protease (or proteinase), consisting of only 99 amino acids, is among the smallest enzymes known
Assay: In vitro HIV protease inhibitory assay (HIV Protease FITC Assay)
Type: biochemical
Conditions: HIV-1 Dose 1.000 uM; read-out: HIV-1 Protease % Inhib
QUANTITY_MEASURED: inhibition at 1 µM (%)
All answers are understood in %, so give the number only.

C=CC(c1ccccc1)c1c(O)cc(C(CCC)CCC)oc1=O (stereo not drawn)	21.2
CCC(c1ccccc1)c1c(O)cc(CC(=O)Nc2ccccc2)oc1=O (stereo not drawn)	10.8
O=c1oc(C(CC2CC2)CC2CC2)cc(O)c1C(C1CCCCC1)C1CC1 (stereo not drawn)	38.3

Now for the compound whose inhibition at 1 µM we want.
For the record CCC(c1ccccc1)c1c(O)cc(CCCc2ccccc2)oc1=O (stereo not drawn) , what value of inhibition at 1 µM is listed for HIV-1 protease (Human immunodeficiency virus type 1 group M subtype B)? 15.8

====

Target: HIV-1 protease (Human immunodeficiency virus type 1 group M subtype B)
Construct: The protease (or proteinase), consisting of only 99 amino acids, is among the smallest enzymes known
Assay: In vitro HIV protease inhibitory assay (HIV Protease FITC Assay)
Type: biochemical
Conditions: HIV-1 Dose 10.000 uM; read-out: HIV-1 Protease % Inhib
Please use yes whenever inhibition at 10 µM is not below 90%, and no whenever it is.

Known results for molecules:
C=CC(C1=C(O)CC2(CCOCC2)OC1=O)c1ccccc1 (stereo not drawn) [Example 121]	no
CCC(c1ccccc1)c1c(O)cc(CCc2ccccc2F)oc1=O (stereo not drawn) [Example 7]	no
C=CCCc1cc(O)c(C(c2ccccc2)C2CC2)c(=O)o1 (stereo not drawn) [Example 98]	yes
O=c1oc(CC(O)c2ccoc2)cc(O)c1C(c1ccccc1)C1CC1 (stereo not drawn) [Example 152]	no
CCC(Cc1ccccc1)c1cc(O)c(C(c2cccc(NS(=O)(=O)CC)c2)C2CC2)c(=O)o1 (stereo not drawn) [Example 247]	yes
C=CC(C1=C(O)CC(CCC)(CCc2ccccc2)OC1=O)c1ccccc1 (stereo not drawn) [Example 174]	yes

In plain terms: is recorded inhibition at 10 µM at least 90% for O=c1oc(C(CC2CC2)CC2CC2)cc(O)c1C(C1CCCCC1)C1CC1 (stereo not drawn) [Example 92] ? no

In plain terms: is recorded inhibition at 10 µM at least 90% for CCC(c1ccccc1)c1c(O)cc(CCC2CC2)oc1=O (stereo not drawn) [Example 96] ? no

In plain terms: is recorded inhibition at 10 µM at least 90% for CCC(Cc1ccc(F)cc1)c1cc(O)c(C(c2ccccc2)C2CC2)c(=O)o1 (stereo not drawn) [Example 154] ? yes

In plain terms: is recorded inhibition at 10 µM at least 90% for CC(c1cc(O)c(C(C2CC2)C2CC2)c(=O)o1)C1CC1 (stereo not drawn) [Example 83] ? no

In plain terms: is recorded inhibition at 10 µM at least 90% for CCC(Cc1cccc(Cl)c1)c1cc(O)c(C(c2ccccc2)C2CC2)c(=O)o1 (stereo not drawn) [Example 156] ? no

In plain terms: is recorded inhibition at 10 µM at least 90% for CCC(CCN1CCOCC1)c1cc(O)c(C(c2ccccc2)C2CC2)c(=O)o1 (stereo not drawn) [Example 131] ? no

In plain terms: is recorded inhibition at 10 µM at least 90% for C=CC(C1=C(O)CC2(CCCCCCC2)OC1=O)c1ccccc1 (stereo not drawn) [Example 125] ? no

In plain terms: is recorded inhibition at 10 µM at least 90% for O=c1oc(CC2CCOCC2)cc(O)c1C(c1ccccc1)C1CC1 (stereo not drawn) [Example 144] ? no

In plain terms: is recorded inhibition at 10 µM at least 90% for CCC(c1ccccc1)c1c(O)cc(CCc2ccc3ccccc3c2)oc1=O (stereo not drawn) [Example 16] ? no

In plain terms: is recorded inhibition at 10 µM at least 90% for CCC(c1ccccc1)c1c(O)cc(CCc2cccc3ccccc23)oc1=O (stereo not drawn) [Example 18] ? no

In plain terms: is recorded inhibition at 10 µM at least 90% for CCC(Cc1ccc(Br)cc1)c1cc(O)c(C(c2ccccc2)C2CC2)c(=O)o1 (stereo not drawn) [Example 158] ? yes
